# study-system: CaBioWF (Corynebacterium amycolatum, UniProt E2MUP3)
# Construct: full-length natural di-domain fusion; synthetic gene in pET-28a, E. coli BL21(DE3); His tag removed by TEV; homodimer by SEC
# experiment-notes: UV-Vis titration, PLP ketoenamine peak at […] nm, hyperbolic fit
pKd: −log10 of the molar value.

# molecule, study-system, pKd
measured = [
    ("C[C@H](N)C(=O)O", "CaBioWF (Corynebacterium amycolatum, UniProt E2MUP3)", 2.74),
    ("NCC(=O)O", "CaBioWF (Corynebacterium amycolatum, UniProt E2MUP3)", 1.79),
]

Just for reference, paper PMC9544090 is where these values come from.
